Property: CLH; scope: individual compounds
Assay: Clearance in rat liver microsomes at 0.5 uM measured up to 45 mins in presence of NADPH by HPLC-MS/MS analysis
Format: ADME, Microsome

# smiles, CLH [mL/min/g]
data = [
    ("Fc1ccc(-c2nc(C3CCNCC3)sc2-c2ccnc(Nc3cccnn3)n2)cc1", 0.95),
    ("Fc1ccc(-c2nc(C3CCNCC3)sc2-c2ccnc(Nc3cnccn3)n2)cc1", 0.49),
    ("Fc1ccc(-c2nc(N3CCOCC3)sc2-c2ccnc(Nc3ccc(N4CCNCC4)cc3)n2)cc1", 0.59),
    ("CN1CCC(c2nc(-c3ccc(F)c(NS(C)(=O)=O)c3)c(-c3ccnc(NCC4CC4)n3)s2)CC1", 6.22),
    ("Cc1cc(Nc2nccc(-c3sc(C4CCNCC4)nc3C3CC3)n2)ccn1", 1.18),
    ("Nc1nc(-c2ccc(F)cc2)c(-c2ccnc(Nc3ccc(N4CCNCC4)cc3)n2)s1", 1.98),
    ("Fc1ccc(-c2nc(N3CCCC3)sc2-c2ccnc(Nc3ccc(N4CCNCC4)cc3)n2)cc1", 0.81),
]

----------
Biological target: Beta-2 adrenergic receptor (Homo sapiens, UniProt P07550)
Sequence (P07550 whole entry): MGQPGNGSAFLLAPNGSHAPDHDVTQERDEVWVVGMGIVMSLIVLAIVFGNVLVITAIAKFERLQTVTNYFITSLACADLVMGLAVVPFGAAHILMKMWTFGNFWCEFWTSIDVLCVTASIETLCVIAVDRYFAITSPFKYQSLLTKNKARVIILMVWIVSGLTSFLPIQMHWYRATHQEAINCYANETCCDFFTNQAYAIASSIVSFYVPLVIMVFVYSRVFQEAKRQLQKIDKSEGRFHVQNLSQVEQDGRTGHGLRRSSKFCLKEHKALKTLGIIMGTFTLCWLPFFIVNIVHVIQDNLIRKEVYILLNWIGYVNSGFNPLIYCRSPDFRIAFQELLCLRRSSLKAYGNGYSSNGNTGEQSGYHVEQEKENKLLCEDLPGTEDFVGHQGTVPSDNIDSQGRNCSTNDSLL
Assay: Agonist activity at human beta2 adrenoceptor
pEC50: −log10 of the molar value.

# smiles, pEC50
records = [
    ("Cc1cc(Nc2nccc(-c3sc(C4CCNCC4)nc3-c3ccc(F)cc3)n2)ccn1", "< 4.00"),
]

----------
Assay: Lipophilicity, LogD of compound by reverse phase HPLC analysis
measure_name: chromatographic logD

# compound, value_reported
measured = [
    ("Fc1ccc(-c2nc(N3CCCC3)sc2-c2ccnc(Nc3ccc(N4CCNCC4)cc3)n2)cc1", 4.43),
    ("CCc1cc(Nc2nccc(-c3sc(C4CCNCC4)nc3-c3ccc(F)cc3)n2)nc(C)c1F", 4.92),
    ("Cc1nnc(Nc2nccc(-c3sc(C4CCNCC4)nc3-c3ccc(F)cc3)n2)s1", 2.02),
    ("O=C(Nc1nc(-c2ccc(F)cc2)c(-c2ccnc(Nc3ccc(N4CCNCC4)cc3)n2)s1)C1CC1", 2.53),
    ("CN1CCN(c2ccc(Nc3nccc(-c4sc(N)nc4-c4ccc(F)cc4)n3)cc2)CC1", 3.61),
    ("COc1cc(Nc2nccc(-c3sc(C4CCNCC4)nc3-c3ccc(F)cc3)n2)cc(C)n1", 3.36),
    ("Fc1ccc(-c2nc(C3CCNCC3)sc2-c2ccnc(NCC3CCCO3)n2)cc1 (centres undefined)", 2.77),
    ("Fc1ccc(-c2nc(C3CCNCC3)sc2-c2ccnc(Nc3ccn(C4CCNCC4)n3)n2)cc1", 1.29),
    ("Fc1ccc(-c2nc(C3CCNCC3)sc2-c2ccnc(Nc3cccnn3)n2)cc1", 2.14),
]

----------
Property: chromatographic logD; scope: individual compounds
Experiment: Lipophilicity, LogD of compound by reverse phase HPLC analysis

# smiles, chromatographic logD
data = [
    ("Cc1cc(Nc2nccc(-c3sc(C4CCNCC4)nc3-c3ccc(F)cc3)n2)nn1C", 2.52),
    ("OCCNc1nccc(-c2sc(C3CCNCC3)nc2-c2ccc(F)cc2)n1", 1.52),
    ("Fc1ccc(-c2nc(C3CCNCC3)sc2-c2ccnc(NCCN3CCSCC3)n2)cc1", 2.84),
    ("Nc1nccc(-c2sc(C3CCNCC3)nc2-c2ccc(F)cc2)n1", 1.5),
    ("Cc1cc(Nc2nccc(-c3sc(C4CCNCC4)nc3-c3ccc(F)cc3)n2)ccn1", 2.54),
    ("CCOc1nccc(Nc2nccc(-c3sc(C4CCNCC4)nc3-c3ccc(F)cc3)n2)n1", 3.21),
    ("Fc1ccc(-c2nc(C3CCNCC3)sc2-c2ccnc(NCCN3CCCC3)n2)cc1", 1.13),
    ("CN1CCC(C(=O)Nc2nc(-c3ccc(F)cc3)c(-c3ccnc(Nc4ccc(N5CCNCC5)cc4)n3)s2)CC1", 2.2),
    ("Fc1ccc(-c2nc(C3CCNCC3)sc2-c2ccnc(Nc3cnccn3)n2)cc1", 2.32),
    ("Fc1ccc(-c2nc(C3CCNCC3)sc2-c2ccnc(NCCN3CCOCC3)n2)cc1", 2.02),
]
